The reported measurements were obtained from the NIST ThermoML archive (doi:10.1016/j.fluid.2012.08.003).

details: 308.2 K; Liquid; Transpiration method
Quantity Measured: vapor or sublimation pressure (kPa)

Some solved cases for reference:
[[record]]
compound = "CCCCCOC(=O)CC [pentyl propanoate]"
value_measured = 0.3925

[[record]]
compound = "CCCCCCCOC=O [heptyl methanoate]"
value_measured = 0.257


(A) CCCCCOC(C)=O [pentyl ethanoate]
(B) CCCCCCCCOC=O [octyl methanoate]
(C) CCCCCCOC(=O)CC [hexyl propanoate]
Ask: Arrange these compounds by their vapor or sublimation pressure, starting with the largest number. The response must list the labels following the requested ordering.
Result: A, C, B
